System: CYP3A
Assay: CYP3A catalytic activity (erythromycin-N-demethylation), mouse hepatic microsomes
Type: in vitro ADME
Details: liver microsomes, pH 7.4, probe erythromycin, 12.5 µM, read-out: CYP3A catalytic activity, % of Control
Let's look at some compounds and their measured activity at 30 min, 12.5 µM.
measured_attribute: activity at 30 min, 12.5 µM (%)

| compound | result_number |
| --- | --- |
| CC1(O)CCC(C(C)(C)O)CC1 (stereo in doubt) [Trans-terpin, trans-terpin] | 101 |
| CC12CCC(CC1)C(C)(C)O2 | 101 |
| CC12CCC(CC1=O)C2(C)C (centres unmarked) | 97.1 |
| CC1(C)CCCCC1 | 98.9 |
| COC(=O)[C@H]1CC[C@H](C(=O)OC)CC1 | 100 |
| CCCCCC12CCC(C(=O)O)(CC1)CC2 | 96.3 |
| C[C@]12CC(=O)C[C@@]1(C)CC(=O)C2 | 101 |
| O=C(O)C1CC2C=CC1O2 (centres unmarked) | 103 |

###

Tested on: UGT
Assay: p-nitrophenol glucuronidation, rat hepatic microsomes
Format: in vitro ADME
Conditions: 25 µM
measured_attribute: p-nitrophenol glucuronidation, % of Control (%)

| molecule | study_target | result_number |
| --- | --- | --- |
| CC1(O)CCC(C(C)(C)O)CC1 (stereo in doubt) [Trans-terpin, trans-terpin] | UGT | 90.51 |
| COC(=O)[C@H]1CC[C@H](C(=O)OC)CC1 | UGT | 94.83 |
| O=C(O)C1C2C=CC(C2)C1C(=O)O (stereo not drawn) | UGT | 98.52 |
| CC1(C)CCCCC1 [1,1-dimethylcyclohexane] | UGT | 100.29 |
| O=C(O)C1CC2C=CC1O2 (stereo not drawn) | UGT | 98.20 |
| CCCCCC12CCC(C(=O)O)(CC1)CC2 | UGT | 101.89 |
| CC12CCC(CC1=O)C2(C)C (stereo not drawn) [Camphor, camphor] | UGT | 106.26 |
| CC12CCC(CC1)C(C)(C)O2 [Cineole] | UGT | 98.18 |
| C[C@]12CC(=O)C[C@@]1(C)CC(=O)C2 | UGT | 97.79 |

###

System: CYP3A
Experiment: CYP3A catalytic activity (erythromycin-N-demethylation), rat hepatic microsomes
Type: in vitro ADME
Conditions: 12.5 µM
Reported CYP3A catalytic activity is given for each of the following compounds.
measured_attribute: CYP3A catalytic activity (nmol/mg/min)

| compound | study_target | unit_info | result_number |
| --- | --- | --- | --- |
| COC(=O)[C@H]1CC[C@H](C(=O)OC)CC1 | CYP3A | nmol/mg/min | 0.64 |
| CC12CCC(CC1=O)C2(C)C (stereo not drawn) | CYP3A | nmol/mg/min | 0.63 |
| CC1(O)CCC(C(C)(C)O)CC1 (stereo in doubt) [Trans-terpin, trans-terpin] | CYP3A | nmol/mg/min | 0.59 |
| CCCCCC12CCC(C(=O)O)(CC1)CC2 | CYP3A | nmol/mg/min | 0.56 |
| O=C(O)C1C2C=CC(C2)C1C(=O)O (stereo not drawn) | CYP3A | nmol/mg/min | 0.65 |
| O=C(O)C1CC2C=CC1O2 (stereo not drawn) | CYP3A | nmol/mg/min | 0.48 |
| CC12CCC(CC1)C(C)(C)O2 | CYP3A | nmol/mg/min | 0.64 |
| C[C@]12CC(=O)C[C@@]1(C)CC(=O)C2 | CYP3A | nmol/mg/min | 0.59 |
| CC1(C)CCCCC1 | CYP3A | nmol/mg/min | 0.61 |

###

Tested on: CYP3A
Assay: CYP3A catalytic activity (erythromycin-N-demethylation), mouse hepatic microsomes
Assay type: in vitro ADME
Conditions: 25 µM
Procedure: Microsomal preparation was as previously outlined. Individual livers were placed in beakers containing 1.15% KCl. All the procedures were carried out at 0–4 °C. […] The protein concentration of the microsomes was determined using the Bicinchoninic acid (BCA) method. CYP3A catalytic activity was determined using the erythromycin-N-demethylation activity assay as described previously. […] The tubes were centrifuged again at 1800× g for 10 min and the absorbance was read at 415 nm. […]

| compound | CYP3A catalytic activity |
| --- | --- |
| COC(=O)[C@H]1CC[C@H](C(=O)OC)CC1 | 0.77 ± 0.05 nmol/mg/min |
| C[C@]12CC(=O)C[C@@]1(C)CC(=O)C2 | 0.70 ± 0.03 nmol/mg/min |
| O=C(O)C1CC2C=CC1O2 (stereo not drawn) | 0.66 ± 0.03 nmol/mg/min |
| O=C(O)C1C2C=CC(C2)C1C(=O)O (stereo not drawn) | 0.77 ± 0.03 nmol/mg/min |
| CC1(O)CCC(C(C)(C)O)CC1 (stereo in doubt) [Trans-terpin, trans-terpin] | 0.70 ± 0.03 nmol/mg/min |
| CC12CCC(CC1)C(C)(C)O2 [Cineole] | 0.64 ± 0.02 nmol/mg/min |
| CCCCCC12CCC(C(=O)O)(CC1)CC2 | 0.67 ± 0.01 nmol/mg/min |
| CC1(C)CCCCC1 [1,1-dimethylcyclohexane] | 0.79 ± 0.04 nmol/mg/min |
| CC12CCC(CC1=O)C2(C)C (stereo not drawn) [Camphor, camphor] | 0.68 ± 0.03 nmol/mg/min |

###

Tested on: CYP3A
Experiment: CYP3A catalytic activity (erythromycin-N-demethylation), mouse hepatic microsomes
Assay type: in vitro ADME
Conditions: liver microsomes, pH 7.4, probe erythromycin, 25 µM, read-out: CYP3A catalytic activity, % of Control
measured_attribute: activity at 30 min, 25 µM (%)

| compound | measured_attribute | result_number |
| --- | --- | --- |
| O=C(O)C1CC2C=CC1O2 (centres unmarked) | activity at 30 min, 25 µM | 103 |
| CC1(C)CCCCC1 [1,1-dimethylcyclohexane] | activity at 30 min, 25 µM | 107 |
| COC(=O)[C@H]1CC[C@H](C(=O)OC)CC1 | activity at 30 min, 25 µM | 106 |
| CC1(O)CCC(C(C)(C)O)CC1 (stereo in doubt) [Trans-terpin, trans-terpin] | activity at 30 min, 25 µM | 99.6 |
| C[C@]12CC(=O)C[C@@]1(C)CC(=O)C2 | activity at 30 min, 25 µM | 99.6 |
| CC12CCC(CC1=O)C2(C)C (centres unmarked) [Camphor, camphor] | activity at 30 min, 25 µM | 96.3 |
| CCCCCC12CCC(C(=O)O)(CC1)CC2 | activity at 30 min, 25 µM | 106 |
| CC12CCC(CC1)C(C)(C)O2 [Cineole] | activity at 30 min, 25 µM | 94.5 |

###

System: UGT
Test: p-nitrophenol glucuronidation, rat hepatic microsomes
Assay type: in vitro ADME
Conditions: 25 µM

| compound | unit_info | p-nitrophenol glucuronidation activity |
| --- | --- | --- |
| CC1(O)CCC(C(C)(C)O)CC1 (stereo in doubt) [Trans-terpin, trans-terpin] | µmol/mg/min | 2.50 |
| C[C@]12CC(=O)C[C@@]1(C)CC(=O)C2 | µmol/mg/min | 2.56 |
| O=C(O)C1C2C=CC(C2)C1C(=O)O (stereo not drawn) | µmol/mg/min | 2.92 |
| CC12CCC(CC1=O)C2(C)C (stereo not drawn) | µmol/mg/min | 2.72 |
| COC(=O)[C@H]1CC[C@H](C(=O)OC)CC1 | µmol/mg/min | 2.83 |
| CC1(C)CCCCC1 | µmol/mg/min | 2.58 |
| CCCCCC12CCC(C(=O)O)(CC1)CC2 | µmol/mg/min | 2.82 |
| CC12CCC(CC1)C(C)(C)O2 | µmol/mg/min | 2.67 |
| O=C(O)C1CC2C=CC1O2 (stereo not drawn) | µmol/mg/min | 2.75 |

###

Test system: CYP3A
Assay: CYP3A catalytic activity (erythromycin-N-demethylation), possum hepatic microsomes
Assay type: in vitro ADME, possum (Trichosurus vulpecula)
Conditions: 12.5 µM
Reported CYP3A catalytic activity values follow for various molecules

| molecule | study_target | CYP3A catalytic activity (nmol/mg/min) |
| --- | --- | --- |
| CC12CCC(CC1)C(C)(C)O2 | CYP3A | 0.40 |
| CCCCCC12CCC(C(=O)O)(CC1)CC2 | CYP3A | 0.40 |
| CC1(O)CCC(C(C)(C)O)CC1 (stereo in doubt) [Trans-terpin, trans-terpin] | CYP3A | 0.41 |
| CC1(C)CCCCC1 | CYP3A | 0.38 |
| CC12CCC(CC1=O)C2(C)C (stereo not drawn) | CYP3A | 0.40 |
| COC(=O)[C@H]1CC[C@H](C(=O)OC)CC1 | CYP3A | 0.39 |
| O=C(O)C1CC2C=CC1O2 (stereo not drawn) | CYP3A | 0.41 |
| O=C(O)C1C2C=CC(C2)C1C(=O)O (stereo not drawn) | CYP3A | 0.39 |
| C[C@]12CC(=O)C[C@@]1(C)CC(=O)C2 | CYP3A | 0.41 |
